The measured values listed here are drawn from the supplement of paper PMC10307832.

- System: A549
- run.description: relative viability (nuclei count vs DMSO), 5 days (fraction); higher = more cells survive
- recorded.conditions: first compound 0.4 µM
parameter.measured: relative viability

Record request: relative viability value, item Clc1ccc(Nc2nnc(Cc3ccncc3)c3ccccc23)cc1 [Vatalanib] + CS(=O)(=O)N1CCN(Cc2cc3nc(-c4cccc5[nH]ncc45)nc(N4CCOCC4)c3s2)CC1 [Pictilisib] (partner 1 µM)
0.502

Record request: relative viability value, item COc1cc(N2CCC(C(N)=O)CC2)ccc1Nc1nc(N)c(Cl)c(Nc2ccccc2S(=O)(=O)C(C)C)n1 [HG-5-88-01] + CS(=O)(=O)N1CCN(Cc2cc3nc(-c4cccc5[nH]ncc45)nc(N4CCOCC4)c3s2)CC1 [Pictilisib] (partner 1 µM)
0.389

====

- Test system: NCI-H1437
- run.description: relative viability (nuclei count vs DMSO), 5 days (fraction); higher = more cells survive
- recorded.conditions: first compound 1.265 µM
parameter.measured: relative viability
Give the figure only, with no unit attached.

Record request: relative viability value, item COc1cc(N2CCC(C(N)=O)CC2)ccc1Nc1nc(N)c(Cl)c(Nc2ccccc2S(=O)(=O)C(C)C)n1 [HG-5-88-01] + CS(=O)(=O)N1CCN(Cc2cc3nc(-c4cccc5[nH]ncc45)nc(N4CCOCC4)c3s2)CC1 [Pictilisib] (partner 1 µM)
0.416

Record request: relative viability value, item COc1cc(N2CCC(C(N)=O)CC2)ccc1Nc1nc(N)c(Cl)c(Nc2ccccc2S(=O)(=O)C(C)C)n1 [HG-5-88-01] + O=C(c1cc(Cc2n[nH]c(=O)c3ccccc23)ccc1F)N1CCN(C(=O)C2CC2)CC1 [Olaparib] (partner 8 µM)
0.631

Record request: relative viability value, item Clc1ccc(Nc2nnc(Cc3ccncc3)c3ccccc23)cc1 [Vatalanib] + NC(=O)Nc1cc(-c2cccc(F)c2)sc1C(=O)N[C@H]1CCCNC1 [AZD7762] (partner 0.2 µM)
1.06

Record request: relative viability value, item Clc1ccc(Nc2nnc(Cc3ccncc3)c3ccccc23)cc1 [Vatalanib] + C[C@]1(O)C[C@@H](c2nc(-c3ccc4ccc(-c5ccccc5)nc4c3)c3c(N)nccn32)C1 [Linsitinib] (partner 1 µM)
0.956

Record request: relative viability value, item COc1cc(N2CCC(C(N)=O)CC2)ccc1Nc1nc(N)c(Cl)c(Nc2ccccc2S(=O)(=O)C(C)C)n1 [HG-5-88-01] + Cc1nc(NC(=O)N2CCC[C@H]2C(N)=O)sc1-c1ccnc(C(C)(C)C(F)(F)F)c1 [Alpelisib] (partner 2 µM)
0.964

Record request: relative viability value, item Clc1ccc(Nc2nnc(Cc3ccncc3)c3ccccc23)cc1 [Vatalanib] + CC(C)C[C@H](NC(=O)[C@H](Cc1ccccc1)NC(=O)c1cnccn1)B(O)O [Bortezomib] (partner 0.002 µM)
0.445

Record request: relative viability value, item COc1cc(N2CCC(C(N)=O)CC2)ccc1Nc1nc(N)c(Cl)c(Nc2ccccc2S(=O)(=O)C(C)C)n1 [HG-5-88-01] + Nc1nc2[nH]cc(CCc3ccc(C(=O)N[C@@H](CCC(=O)O)C(=O)O)cc3)c2c(=O)[nH]1 [Pemetrexed] (partner 0.2 µM)
0.327

Record request: relative viability value, item COc1cc(N2CCC(C(N)=O)CC2)ccc1Nc1nc(N)c(Cl)c(Nc2ccccc2S(=O)(=O)C(C)C)n1 [HG-5-88-01] + CCNC(=O)c1noc(-c2cc(C(C)C)c(O)cc2O)c1-c1ccc(CN2CCOCC2)cc1 [Luminespib] (partner 0.01 µM)
0.998

====

What relative viability was measured for each of the following?
- Tested on: NCI-H2023
- run.description: relative viability (nuclei count vs DMSO), 5 days (fraction); higher = more cells survive
- recorded.conditions: first compound 8 µM
Give the figure only, with no unit attached.

Record request: relative viability value, item CCCCCCCCCCCC1=C(O)C(=O)C=C(O)C1=O [Embelin] + COc1cccc2cc(-c3nc([C@H]4CC[C@H](C(=O)O)CC4)n4ncnc(N)c34)[nH]c12 [OSI-027] (partner 0.5 µM)
0.398

Record request: relative viability value, item CCCCCCCCCCCC1=C(O)C(=O)C=C(O)C1=O [Embelin] + Cc1nc(NC(=O)N2CCC[C@H]2C(N)=O)sc1-c1ccnc(C(C)(C)C(F)(F)F)c1 [Alpelisib] (partner 2 µM)
0.639

Record request: relative viability value, item CCCCCCCCCCCC1=C(O)C(=O)C=C(O)C1=O [Embelin] + Nc1nc2[nH]cc(CCc3ccc(C(=O)N[C@@H](CCC(=O)O)C(=O)O)cc3)c2c(=O)[nH]1 [Pemetrexed] (partner 0.2 µM)
0.249

Record request: relative viability value, item CCCCCCCCCCCC1=C(O)C(=O)C=C(O)C1=O [Embelin] + Cc1nc(Nc2ncc(C(=O)Nc3c(C)cccc3Cl)s2)cc(N2CCN(CCO)CC2)n1 [Dasatinib] (partner 0.075 µM)
0.556

====

- System: LK-2
- run.description: relative viability (nuclei count vs DMSO), 5 days (fraction); higher = more cells survive
- recorded.conditions: first compound 4 µM
parameter.measured: relative viability
Give the figure only, with no unit attached.

Record request: relative viability value, item C[C@@H]1CN(CC(=O)Nc2ccc3c(c2)Cc2cccc(-c4cc(=O)cc(N5CCOCC5)o4)c2S3)C[C@H](C)O1 + Nc1nc2[nH]cc(CCc3ccc(C(=O)N[C@@H](CCC(=O)O)C(=O)O)cc3)c2c(=O)[nH]1 [Pemetrexed] (partner 0.2 µM)
0.217

Record request: relative viability value, item C[C@@H]1CN(CC(=O)Nc2ccc3c(c2)Cc2cccc(-c4cc(=O)cc(N5CCOCC5)o4)c2S3)C[C@H](C)O1 + CC(=O)Nc1cccc(-n2c(=O)n(C3CC3)c(=O)c3c(Nc4ccc(I)cc4F)n(C)c(=O)c(C)c32)c1 [Trametinib] (partner 0.02 µM)
0.912

Record request: relative viability value, item Clc1ccc(Nc2nnc(Cc3ccncc3)c3ccccc23)cc1 [Vatalanib] + Nc1ncn([C@H]2C[C@H](O)[C@@H](CO)O2)c(=O)n1 [Decitabine] (partner 2 µM)
0.319

Record request: relative viability value, item COc1cc(N2CCC(C(N)=O)CC2)ccc1Nc1nc(N)c(Cl)c(Nc2ccccc2S(=O)(=O)C(C)C)n1 [HG-5-88-01] + C[C@@H](Oc1cc(-c2cnn(C3CCNCC3)c2)cnc1N)c1c(Cl)ccc(F)c1Cl [Crizotinib] (partner 1 µM)
0.21

====

What relative viability was measured for each of the following?
- Tested on: NCI-H1355
- run.description: relative viability (nuclei count vs DMSO), 5 days (fraction); higher = more cells survive
- recorded.conditions: first compound 0.04 µM
Give the figure only, with no unit attached.

Record request: relative viability value, item C[C@@H]1CN(CC(=O)Nc2ccc3c(c2)Cc2cccc(-c4cc(=O)cc(N5CCOCC5)o4)c2S3)C[C@H](C)O1 + CS(=O)(=O)N1CCN(Cc2cc3nc(-c4cccc5[nH]ncc45)nc(N4CCOCC4)c3s2)CC1 [Pictilisib] (partner 1 µM)
0.229

Record request: relative viability value, item C[C@@H]1CN(CC(=O)Nc2ccc3c(c2)Cc2cccc(-c4cc(=O)cc(N5CCOCC5)o4)c2S3)C[C@H](C)O1 + N=C(N)NC(=N)NCCc1ccccc1 [Phenformin] (partner 250 µM)
0.455

Record request: relative viability value, item COc1cc(N2CCC(C(N)=O)CC2)ccc1Nc1nc(N)c(Cl)c(Nc2ccccc2S(=O)(=O)C(C)C)n1 [HG-5-88-01] + O=C(c1cc(Cc2n[nH]c(=O)c3ccccc23)ccc1F)N1CCN(C(=O)C2CC2)CC1 [Olaparib] (partner 8 µM)
0.833

Record request: relative viability value, item C[C@@H]1CN(CC(=O)Nc2ccc3c(c2)Cc2cccc(-c4cc(=O)cc(N5CCOCC5)o4)c2S3)C[C@H](C)O1 + COc1cc2c(Oc3ccc(NC(=O)C4(C(=O)Nc5ccc(F)cc5)CC4)cc3F)ccnc2cc1OCCCN1CCOCC1 [Foretinib] (partner 0.25 µM)
0.95

Record request: relative viability value, item COc1cc(N2CCC(C(N)=O)CC2)ccc1Nc1nc(N)c(Cl)c(Nc2ccccc2S(=O)(=O)C(C)C)n1 [HG-5-88-01] + CS(=O)(=O)N1CCN(Cc2cc3nc(-c4cccc5[nH]ncc45)nc(N4CCOCC4)c3s2)CC1 [Pictilisib] (partner 1 µM)
0.253

Record request: relative viability value, item C[C@@H]1CN(CC(=O)Nc2ccc3c(c2)Cc2cccc(-c4cc(=O)cc(N5CCOCC5)o4)c2S3)C[C@H](C)O1 + Cc1nc(NC(=O)N2CCC[C@H]2C(N)=O)sc1-c1ccnc(C(C)(C)C(F)(F)F)c1 [Alpelisib] (partner 2 µM)
0.856

Record request: relative viability value, item COc1cc(N2CCC(C(N)=O)CC2)ccc1Nc1nc(N)c(Cl)c(Nc2ccccc2S(=O)(=O)C(C)C)n1 [HG-5-88-01] + CCNC(=O)c1noc(-c2cc(C(C)C)c(O)cc2O)c1-c1ccc(CN2CCOCC2)cc1 [Luminespib] (partner 0.01 µM)
0.663

Record request: relative viability value, item Clc1ccc(Nc2nnc(Cc3ccncc3)c3ccccc23)cc1 [Vatalanib] + C[C@]1(O)C[C@@H](c2nc(-c3ccc4ccc(-c5ccccc5)nc4c3)c3c(N)nccn32)C1 [Linsitinib] (partner 1 µM)
0.87
